biological target: ErbB3 on cancer cells (UniProt P21860 20-1342, limits assumed); assay: cell-based or functional assay
Measurement Name: Inhibition of Akt phosphorylation, IC50 (HRG-stimulated MCF7 cells) (nM)

{"Binder": "472M1 (antibody, V domains shown, IgG1 (Selexis 085 vector, CHO)) VH: EVQLLESGGGLVQPGGSLRLSCAASGFTFSWYDLSWVRQAPGKGLEWVSGISYDGGNTYYADSVKGRFTISRDNSKNTLYLQMNSLRAEDTAVYYCARDPSWCLQDLCYYADGMDVWGQGTLVTVSS VL: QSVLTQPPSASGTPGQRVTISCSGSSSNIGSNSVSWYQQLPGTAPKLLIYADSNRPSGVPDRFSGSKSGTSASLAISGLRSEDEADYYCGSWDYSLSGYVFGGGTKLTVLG", "Unit Of Measure": "nM", "Val": 0.246}
